mass density listing for selected compounds.
Conditions: 328.15 K; 5000 kPa; Liquid; Vibrating tube method
± gives the expanded uncertainty stated by the source.
Include the unit after the number when you answer.

CCCCCCCC[n+]1cccc(C)c1.F[B-](F)(F)F [N-octyl-3-methylpyridinium tetrafluoroborate] ... 1078.67 ± 1 kg/m3
CCC[n+]1ccccc1Oc1ccc(Cl)c[n+]1CCOS(=O)(=O)[O-].F[B-](F)(F)F ... 1233.97 ± 0.47 kg/m3
CCCC[n+]1ccccc1.O=S(=O)([O-])C(F)(F)F [1-butylpyridinium trifluoromethanesulfonate] ... 1295.18 ± 0.54 kg/m3

The recorded mass density for entry CCCC[n+]1ccccc1.F[B-](F)(F)F [1-butylpyridinium tetrafluoroborate] equals 1195.72 ± 0.43 kg/m3

// sample CCCC[n+]1cccc(C)c1.N#C[N-]C#N [1-butyl-3-methylpyridinium dicyanamide] , its mass density was 1033.17 ± 0.91 kg/m3

* * *

Let's look at some molecules and their measured mass density.
Conditions: 303.15 K; 30000 kPa; Liquid; Vibrating tube method
Numeric only. Scale: kg/m3

Please review the following examples before continuing.
CCC[n+]1ccccc1Oc1ccc(Cl)c[n+]1CCOS(=O)(=O)[O-].F[B-](F)(F)F ... 1262.48
CCCC[n+]1ccccc1.F[B-](F)(F)F [1-butylpyridinium tetrafluoroborate] ... 1224.11
CCCC[n+]1cccc(C)c1.N#C[N-]C#N [1-butyl-3-methylpyridinium dicyanamide] ... 1057.57

The reported mass density of the molecule CCCC[n+]1ccccc1.O=S(=O)([O-])C(F)(F)F [1-butylpyridinium trifluoromethanesulfonate] was 1328.06

Given item CCCCCCCC[n+]1cccc(C)c1.F[B-](F)(F)F [N-octyl-3-methylpyridinium tetrafluoroborate] , the value recorded as its mass density is 1107.32

* * *

Measured mass density accompanies every entry in the list below.
Conditions: 318.15 K; 15000 kPa; Liquid; Vibrating tube method
Please respond with the number in kg/m3 and leave the unit unwritten.

Some molecules with recorded mass density:
CCCCCCCC[n+]1cccc(C)c1.F[B-](F)(F)F [N-octyl-3-methylpyridinium tetrafluoroborate] ... 1090.4
CCC[n+]1ccccc1Oc1ccc(Cl)c[n+]1CCOS(=O)(=O)[O-].F[B-](F)(F)F ... 1245.52

The molecule CCCC[n+]1ccccc1.F[B-](F)(F)F [1-butylpyridinium tetrafluoroborate] showed mass density equal to 1207.31

mass density recorded for this molecule, CCCC[n+]1ccccc1.O=S(=O)([O-])C(F)(F)F [1-butylpyridinium trifluoromethanesulfonate] , is 1308.66

Noted for CCCC[n+]1cccc(C)c1.N#C[N-]C#N [1-butyl-3-methylpyridinium dicyanamide] : its mass density reads 1043.3

* * *

Recorded mass density for the following molecules
Conditions: 293.15 K; 65000 kPa; Liquid; Vibrating tube method
Numbers after ± are expanded uncertainties.
Answer with the figure and its unit, nothing else.

# mass density of CCCC[n+]1cccc(C)c1.N#C[N-]C#N [1-butyl-3-methylpyridinium dicyanamide] = 1074.96 ± 1.2 kg/m3

Input CCCCCCCC[n+]1cccc(C)c1.F[B-](F)(F)F [N-octyl-3-methylpyridinium tetrafluoroborate] . Output mass density: 1127.47 ± 1.4 kg/m3

Note to self: mass density recorded for CCC[n+]1ccccc1Oc1ccc(Cl)c[n+]1CCOS(=O)(=O)[O-].F[B-](F)(F)F was 1281.96 ± 1.2 kg/m3

Looking up CCCC[n+]1ccccc1.F[B-](F)(F)F [1-butylpyridinium tetrafluoroborate] , I see its mass density listed as 1243.85 ± 1.1 kg/m3

* * *

Settings: 288.15 K; 100 kPa; Liquid; Vibrating tube method
Measured parameter: mass density (kg/m3)
Just the number in kg/m3, nothing appended.

CCC[n+]1ccccc1Oc1ccc(Cl)c[n+]1CCOS(=O)(=O)[O-].F[B-](F)(F)F ... 1260.92
CCCCCCCC[n+]1cccc(C)c1.F[B-](F)(F)F [N-octyl-3-methylpyridinium tetrafluoroborate] ... 1102.88
CCCC[n+]1cccc(C)c1.N#C[N-]C#N [1-butyl-3-methylpyridinium dicyanamide] ... 1055.64

Now consider a different molecule.
Briefly, mass density measured for CCCC[n+]1ccccc1.F[B-](F)(F)F [1-butylpyridinium tetrafluoroborate] : 1221.64

* * *

Conditions: 313.15 K; 35000 kPa; Liquid; Vibrating tube method
± gives the expanded uncertainty stated by the source.
// mass density lookup, one value per entry
Just the number plus its unit, please.

Worked examples, 2 compounds total:
CCCC[n+]1cccc(C)c1.N#C[N-]C#N [1-butyl-3-methylpyridinium dicyanamide] ... 1053.63 ± 1 kg/m3
CCCC[n+]1ccccc1.F[B-](F)(F)F [1-butylpyridinium tetrafluoroborate] ... 1219.51 ± 0.71 kg/m3

response.value for CCCCCCCC[n+]1cccc(C)c1.F[B-](F)(F)F [N-octyl-3-methylpyridinium tetrafluoroborate] (field: mass density) = 1103.14 ± 1.2 kg/m3

Record CCC[n+]1ccccc1Oc1ccc(Cl)c[n+]1CCOS(=O)(=O)[O-].F[B-](F)(F)F . Reported mass density: 1257.51 ± 0.79 kg/m3

Recorded result, CCCC[n+]1ccccc1.O=S(=O)([O-])C(F)(F)F [1-butylpyridinium trifluoromethanesulfonate] , mass density: 1323.08 ± 0.94 kg/m3

* * *

Settings: 293.15 K; 55000 kPa; Liquid; Vibrating tube method
Recorded mass density by entry
Report only the number, with the unit kg/m3 understood.

Study these solved cases before continuing.
CCCC[n+]1ccccc1.F[B-](F)(F)F [1-butylpyridinium tetrafluoroborate] ... 1240.31
CCC[n+]1ccccc1Oc1ccc(Cl)c[n+]1CCOS(=O)(=O)[O-].F[B-](F)(F)F ... 1278.62
CCCC[n+]1cccc(C)c1.N#C[N-]C#N [1-butyl-3-methylpyridinium dicyanamide] ... 1072.13

// next entry
In plain terms, CCCCCCCC[n+]1cccc(C)c1.F[B-](F)(F)F [N-octyl-3-methylpyridinium tetrafluoroborate] has a documented mass density of 1123.82

* * *

Settings: 333.15 K; 40000 kPa; Liquid; Vibrating tube method
# mass density per record follows
API: value field is a number in kg/m3; no unit string.

Please review the following examples before continuing.
CCCCCCCC[n+]1cccc(C)c1.F[B-](F)(F)F [N-octyl-3-methylpyridinium tetrafluoroborate] ... 1093.31
CCCC[n+]1cccc(C)c1.N#C[N-]C#N [1-butyl-3-methylpyridinium dicyanamide] ... 1044.05
CCC[n+]1ccccc1Oc1ccc(Cl)c[n+]1CCOS(=O)(=O)[O-].F[B-](F)(F)F ... 1246.16

Record summary for CCCC[n+]1ccccc1.O=S(=O)([O-])C(F)(F)F [1-butylpyridinium trifluoromethanesulfonate] : reported mass density = 1311.33

Please fill in: mass density reported for CCCC[n+]1ccccc1.F[B-](F)(F)F [1-butylpyridinium tetrafluoroborate] = 1208.69

* * *

Conditions: 293.15 K; 35000 kPa; Liquid; Vibrating tube method
± gives the expanded uncertainty stated by the source.
Measured parameter: mass density

CCC[n+]1ccccc1Oc1ccc(Cl)c[n+]1CCOS(=O)(=O)[O-].F[B-](F)(F)F ... 1271.32 ± 0.82 kg/m3
CCCC[n+]1ccccc1.F[B-](F)(F)F [1-butylpyridinium tetrafluoroborate] ... 1232.84 ± 0.74 kg/m3
CCCC[n+]1cccc(C)c1.N#C[N-]C#N [1-butyl-3-methylpyridinium dicyanamide] ... 1065.35 ± 1.1 kg/m3

// switching to the query compound
The compound listed as CCCCCCCC[n+]1cccc(C)c1.F[B-](F)(F)F [N-octyl-3-methylpyridinium tetrafluoroborate] shows mass density equal to 1115.81 ± 1.2 kg/m3

* * *

Conditions: 298.15 K; 15000 kPa; Liquid; Vibrating tube method
Catalogue of mass density values
Write down the numeric answer in kg/m3 and omit the unit.

CCCCCCCC[n+]1cccc(C)c1.F[B-](F)(F)F [N-octyl-3-methylpyridinium tetrafluoroborate] ... 1103.47

Short answer for CCCC[n+]1cccc(C)c1.N#C[N-]C#N [1-butyl-3-methylpyridinium dicyanamide] : mass density was 1055.19

For reference, reported mass density for CCCC[n+]1ccccc1.F[B-](F)(F)F [1-butylpyridinium tetrafluoroborate] stands at 1221.01

Entry under test: CCC[n+]1ccccc1Oc1ccc(Cl)c[n+]1CCOS(=O)(=O)[O-].F[B-](F)(F)F . Its mass density was 1259.9

* * *

Settings: 328.15 K; 50000 kPa; Liquid; Vibrating tube method
In this section, each of the molecules is paired with its reported mass density.
Express your answer in kg/m3, writing the number without its unit.

Please review the following examples before continuing.
CCC[n+]1ccccc1Oc1ccc(Cl)c[n+]1CCOS(=O)(=O)[O-].F[B-](F)(F)F ... 1253.26
CCCC[n+]1ccccc1.F[B-](F)(F)F [1-butylpyridinium tetrafluoroborate] ... 1215.6
CCCC[n+]1cccc(C)c1.N#C[N-]C#N [1-butyl-3-methylpyridinium dicyanamide] ... 1050.54

response.value for CCCC[n+]1ccccc1.O=S(=O)([O-])C(F)(F)F [1-butylpyridinium trifluoromethanesulfonate] (field: mass density) = 1319.65

mass density reading for CCCCCCCC[n+]1cccc(C)c1.F[B-](F)(F)F [N-octyl-3-methylpyridinium tetrafluoroborate] : 1100.54

Source listed as the NIST ThermoML archive (doi:10.1016/j.fluid.2011.12.029).
